Test system: Caco-2
Test summary: cell viability relative to DMSO; higher = less toxic
Assay context: 72 h; 10000 nM
Parameter cell viability: see the listing below.
Measure name: cell viability (%)

Compound: CCOC(=O)c1c(/C(C#N)=C\N)c2ccc(Cl)c(Cl)c2n1C
Endpoint value: 92.4

Compound: N=C(N)NCCN1CCCCCCC1
Endpoint value: 101

Compound: CC[C@H](NC(=O)c1c(C)c(-c2ccccc2)nc2ccccc12)c1ccccc1
Endpoint value: 91.2

Compound: O=c1[nH]nc2c3c(cccc13)N=C(CN1Cc3ccccc3C1)N2
Endpoint value: 89.1

---

System: Caco-2
Test summary: cell viability relative to DMSO; higher = less toxic
Assay context: 72 h; 10 nM

Compound: CCC[C@H](N[C@H]1CCc2cc(F)cc(F)c2C1)C(=O)Nc1cn(C(C)(C)CNCC(C)(C)C)cn1
Units label: %
cell viability: 91.8
--
Compound: O=c1[nH]c2cc(C(F)(F)F)c(N3CCOCC3)cc2n(CP(=O)(O)O)c1=O
Units label: %
cell viability: 92.8
--
Compound: O=C(O)COc1nn(Cc2ccccc2)c2ccccc12 [bendazac]
Units label: %
cell viability: 96.3
--
Compound: COC[C@H]1OC(=O)c2coc3c2[C@@]1(C)C1=C(C3=O)[C@@H]2CCC(=O)[C@@]2(C)C[C@H]1OC(C)=O [wortmannin]
Units label: %
cell viability: 99.3
--
Compound: Oc1cccc(O)c1 [resorcinol]
Units label: %
cell viability: 89.8
